Target: Cytochrome P450 2C9 (Homo sapiens)
Assay: Cytochrome P450 Family 2 Subfamily C Member 9 (CYP2C9) small molecule antagonists: luciferase reporter qHTS assay (AID 1671198); note: nearly all actives have a fitted effect of over 50% in size; note: potency is the fitted concentration of half-maximal effect
Conditions: P450-Glo CYP2C9 enzyme assay, luciferin luminescence; series mostly up to 115 µM
Source text: U.S. Tox21 Program National Center for Advancing Translational Sciences [NCATS] U.S. Environmental Protection Agency [EPA] National Institutes of Environmental Health Sciences [NIEHS] National Toxicology Program [NTP] U.S. Food and Drug Administration [FDA] […] The luciferin products formed are detected with a luciferin detection reagent, and the amount of light produced is proportional to CYP activity. […]
Records with an inconclusive call do not appear. Activity calls are given as the source filed them. Calls come from the whole dose curve; as a rule, active = well fitted inhibition curve with a large enough effect in the repeat runs; inconclusive = weak or mixed curves; inactive = no such curve, though single readings can be large or run the other way.
attribute-measured: Potency

compound: O=C(O)c1ccccc1[N+](=O)[O-]
measured-target: Cytochrome P450 2C9 (Homo sapiens)
reading: inactive

compound: C=CC(C)(O)CC/C=C(/C)CCC=C(C)C (stereo unspecified)
measured-target: Cytochrome P450 2C9 (Homo sapiens)
reading: 31.7 µM (active)

compound: CC1=C(C)C(=O)C(C(CCCCCC(=O)O)c2ccccc2)=C(C)C1=O (stereo unspecified)
measured-target: Cytochrome P450 2C9 (Homo sapiens)
reading: 17.4 µM (active)

compound: CCCCOC(=O)C(C)Oc1ccc(Oc2ccc(C(F)(F)F)cn2)cc1 (stereo unspecified)
measured-target: Cytochrome P450 2C9 (Homo sapiens)
reading: 22.4 µM (active)

compound: O=C(NC1CCN(CCc2c[nH]c3ccccc23)CC1)c1ccccc1
measured-target: Cytochrome P450 2C9 (Homo sapiens)
reading: inactive

compound: CC(C)(C)N
measured-target: Cytochrome P450 2C9 (Homo sapiens)
reading: inactive

compound: CCCCCCCCCC(C)C=O (stereo unspecified)
measured-target: Cytochrome P450 2C9 (Homo sapiens)
reading: 44.8 µM (active)

compound: CCc1ccc(C(=O)C(C)CN2CCCCC2)cc1 (stereo unspecified)
measured-target: Cytochrome P450 2C9 (Homo sapiens)
reading: inactive

// Potency lookup, compound = O=C(Nc1ccc2c(c1)Cc1ccccc1-2)C(F)(F)F , result: 5.03 µM (active)

// Potency lookup, compound = CCCN(C1CCN(C(=O)C2CCNCC2)CC1)[C@@H]1CCc2ccc(OC)cc2C1 , result: inactive

// Potency lookup, compound = O=C(OC1C[C@H]2CC[C@@H](C1)[N+]21CCCC1)C(O)(c1ccccc1)c1ccccc1 (stereo partly specified) , result: inactive

// Potency lookup, compound = CC1(C)CC(O)CC(C)(C)N1[O] , result: inactive

// Potency lookup, compound = CC(C(=O)O)c1ccc(/C=C2\CCCCC2=O)cc1 (stereo unspecified) , result: inactive

// Potency lookup, compound = Cc1nc(C)c(C)nc1C , result: inactive

// Potency lookup, compound = O=[N+]([O-])c1ccc(Cl)cc1Cl , result: inactive

// Potency lookup, compound = COc1ccc(C(=O)Nc2ccccc2)cc1[N+](=O)[O-] , result: 35.9 µM (active)

// Potency lookup, compound = CCCC1CCOC(C)S1 (stereo unspecified) , result: inactive

// Potency lookup, compound = CC(C)NC(=O)c1ccccc1N , result: inactive

// Potency lookup, compound = CC(=O)c1ccc(Cl)c(Cl)c1Cl , result: inactive

// Potency lookup, compound = COc1ccc(C(=O)c2ccc(C)cc2)c(O)c1 , result: 22.7 µM (active)

// Potency lookup, compound = CC/C=C/CCO , result: inactive

// Potency lookup, compound = C[C@@H](O)[C@H]1C(=O)N2C(C(=O)O)=C(S[C@@H]3CN[C@H](CNS(N)(=O)=O)C3)[C@H](C)[C@H]12 , result: 15.5 µM (active)

// Potency lookup, compound = CC(C)Oc1ccccc1O , result: inactive

Sourced from PubChem BioAssay (Tox21)
